System: S. cerevisiae expressing PfHSP40, growth rescue, plate reader
assay-comment: Yeast growth rescue from Plasmodium falciparum HSP40 toxicity, dose response confirmatory, plate reader (AID 540271);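 also: yeast growth read after three days of incubation at 30 °C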
Active and inactive are the calls of the source. No rule for the calls is given here.
observed-property: AC50

So for CCc1cc(C(=O)Nc2nc(-c3ccccn3)cs2)sc1C , the logged AC50 turned out to be 4.3 µM

Entry Cc1onc(-c2c(Cl)cccc2Cl)c1C(=O)N/N=C(\N)COc1ccc(Cl)cc1 — recorded AC50 = 3.02 µM

AC50 reading for CCc1ccc(C(C)NC(=S)NC2CCCCC2)cc1 (stereo unspecified) : 7.1 µM

Measured AC50 of CCCCCCSc1ccc(-c2nc3ccccn3c2NCCCC)cc1 : 6.05 µM

Entry CC(C)(C)n1nc(Cc2cccc3ccccc23)c2c(N)ncnc21 — recorded AC50 = 5.46 µM

AC50 for COC(=O)COC(=O)c1ccccc1NC(=O)c1ccccc1 is 3.13 µM

AC50 reading for Cc1nc2ccc(C(=O)NCc3ccc4c(c3)OCO4)cc2s1 : 4.51 µM

Lab note: measured AC50 of COc1cnc(-c2ccccn2)nc1Sc1ccc(C)cc1 was 5.97 µM

For C=C(C)COc1ccc(-c2[nH]ncc2-c2ccc(Br)cc2)c(O)c1 the molecule record lists AC50 as 4.66 µM

In plain terms, Cc1onc(-c2ccccc2)c1C(=O)NC(=S)NNC(=O)c1cc(-c2ccc(F)cc2)n[nH]1 has a documented AC50 of > 4.2 µM (inactive)

O=C(O)c1ccc(N/N=C/C=C/c2ccccc2)cc1 yielded AC50 of 3.72 µM

Record summary for Cc1ccc(-c2nn(C(C)(C)C)c3ncnc(N)c23)cc1 : reported AC50 = 1.28 µM

Value of AC50 reported for the molecule O=[N+]([O-])c1cc2oc3c(c2c(C=NCc2ccccc2)c1O)CCCC3 is 0.986 µM

// field: AC50; key: Cc1nnc(N/N=C/c2cccc(OCc3ccc(Cl)c(Cl)c3)c2)n1N ; value = > 12 µM (inactive)

Looking up CCN(CC)c1ccc(/C=C/c2ccc3ccc(OC)cc3[n+]2CC)cc1 , I found its AC50 recorded as 5.78 µM

For record COc1ccc(-c2sc3ccccc3c2C#Cc2cncn2C)cc1 the listed AC50 is 6.77 µM

Looking up Cc1ccc(-n2nnnc2C(Cl)c2nnnn2-c2ccc(C)cc2)cc1 , I found its AC50 recorded as 3.4 µM

Reported AC50 ( O=c1c2ccccc2nc(-c2cccc(Cl)c2)n1O ) = 3.21 µM

AC50 recorded for this molecule, CCCCC(=O)NC(c1ccc(OC)c(OC)c1)c1ccc2cccnc2c1O (stereo unspecified) , is 1.83 µM

Given item COc1cccc(/C=N/NC(=O)c2cc(-c3cccn3C)n[nH]2)c1O , the value recorded as its AC50 is 10.2 µM

Lab note: measured AC50 of CC(=O)c1c(C)oc2c1C(=O)c1ccccc1C2=O was 5.09 µM

# AC50 of CC(C)CSc1n[nH]c(=S)s1 = 6.48 µM

According to the records, this molecule O=C(CSc1nnc(-c2ccccc2O)n1Cc1ccccc1)NNC(=O)c1ccccc1O displays AC50 of 3.94 µM

AC50 measured on CCC(Oc1ccc(Br)cc1Cl)C(=O)Nc1nnc(C2CC2)s1 (stereo unspecified) = 4.51 µM

The value of AC50 measured for the molecule Cc1cc(F)ccc1S(=O)(=O)N(C(=O)c1ccncc1)c1ccc(OC(=O)c2ccncc2)cc1 turned out to be 6.3 µM

Record COc1cc([N+](=O)[O-])cc(/C=N/NC(=O)c2cncc(Br)c2)c1O . Reported AC50: 4.36 µM

Form field AC50, entry Clc1ccc(-c2n[nH]c3c2CCC3)cc1Cl : 5.64 µM

Value of AC50 reported for the molecule O=c1nc(N/N=C/c2ccccn2)cn[nH]1 is 5.76 µM

Given item O=[N+]([O-])c1cccc(C=NNc2ccc3ccccc3n2)c1O , the value recorded as its AC50 is 1.69 µM

The molecule listed as Oc1c(I)cc(Cl)c2cccnc12 shows AC50 equal to 0.629 µM

Quick note, AC50 for O=C(c1ccc(-c2ccccc2)cc1)C1CCCN(C(=O)c2cncs2)C1 (stereo unspecified) landed at 5.93 µM

Lab book: AC50 of CC(C)(C)C(=O)C(Oc1ccc(Cl)cc1)n1cncn1 (stereo unspecified) noted as 4.7 µM

Consider Cc1onc(-c2ccccc2)c1C(=O)NC(=S)NNC(=O)c1ccc(O)cc1O . Its measured AC50 is 4.82 µM

Entry under test: O=S(=O)(Nc1nc2ccccc2nc1N1CCN(c2ccccn2)CC1)c1ccc(Cl)cc1 . Its AC50 was 1.79 µM

AC50 in this record for CC(C)(c1cc(Br)c(O)c(Br)c1)c1cc(Br)c(O)c(Br)c1 : 8.13 µM

# AC50 (molecule: Cc1cc(C)c2sc(NNC(=O)c3ccc(S(=O)(=O)N4CCc5ccccc5C4)cc3)nc2c1 ) is 1.48 µM

// O=C1c2cc(F)ccc2-n2c1nc1ccccc1c2=O : AC50 value = 0.927 µM

Query CC[n+]1c(/C=C/C=C/c2ccc(N(C)C)cc2)sc2ccccc21 yields AC50 of 3.71 µM

Entry COc1ccc(OC)c2c1C(=O)C(Cl)=C(Cl)C2=O , AC50 reported as 1.4 µM

Field AC50 (entry Cc1ccc(NC(=O)c2cc(N3C(=O)C=CC3=O)ccc2Cl)cc1C ) reads 1.63 µM

Per the records, this molecule ( CC1CCN(c2nc(-c3ccncc3)nc3ccccc23)CC1 ) has AC50 equal to 7.47 µM

Reported AC50 ( Oc1c(Cl)c(Cl)c(Cl)c(Cl)c1Cl ) = 2.89 µM

AC50 reading for O=C(Oc1ccc(N(C(=O)c2ccncc2)S(=O)(=O)c2ccc(Cl)cc2)cc1)c1ccncc1 : 5.85 µM

AC50 recorded for this molecule, Cc1ccc2c(C)c3ccc4ccccc4c3c[n+]2c1 , is 6 µM

Entry O=C(NCC1CC1(Cl)Cl)Nc1ccc(Cl)c(Cl)c1 (stereo unspecified) — recorded AC50 = 5.73 µM

// field: AC50; key: Cc1[nH]n(-c2cccc3ccccc23)c(=O)c1/C=N/NC(=O)c1cccc([N+](=O)[O-])c1 ; value = 1.48 µM
